Values from patent US20230285581A1

ratio of 11 nM antibody binding signal (RLU) to isotype control by entry:
Target: full length human MSR1 with a C-terminal Myc tag on HEK293.Myc.hMSR1 cells (human) (UniProt P21757)
Sequence (P21757 whole entry): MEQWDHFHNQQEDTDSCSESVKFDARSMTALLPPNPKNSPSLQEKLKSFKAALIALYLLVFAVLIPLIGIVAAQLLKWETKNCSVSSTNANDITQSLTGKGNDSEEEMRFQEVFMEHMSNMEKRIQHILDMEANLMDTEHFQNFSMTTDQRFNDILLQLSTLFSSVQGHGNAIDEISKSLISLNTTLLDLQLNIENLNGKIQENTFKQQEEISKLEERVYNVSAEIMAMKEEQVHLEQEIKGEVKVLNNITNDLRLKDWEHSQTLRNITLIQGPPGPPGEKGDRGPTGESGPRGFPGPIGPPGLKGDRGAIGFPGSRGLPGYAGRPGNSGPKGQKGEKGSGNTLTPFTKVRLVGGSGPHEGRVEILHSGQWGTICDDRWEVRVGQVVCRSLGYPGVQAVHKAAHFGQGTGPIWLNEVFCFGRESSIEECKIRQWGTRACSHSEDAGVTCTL
Assay: ECL cell binding, HEK293.Myc.hMSR1 cells
Outcome Measure: ratio of 11 nM antibody binding signal (RLU) to isotype control

{"columns": ["Binder", "Obs Value"],
 "data": [
  ["H1H27754P-N297Q (antibody, human IgG1, V domains shown) VH: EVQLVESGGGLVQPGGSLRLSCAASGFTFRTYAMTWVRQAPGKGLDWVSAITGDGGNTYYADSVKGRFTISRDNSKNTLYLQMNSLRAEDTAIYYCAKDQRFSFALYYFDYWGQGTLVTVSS VL: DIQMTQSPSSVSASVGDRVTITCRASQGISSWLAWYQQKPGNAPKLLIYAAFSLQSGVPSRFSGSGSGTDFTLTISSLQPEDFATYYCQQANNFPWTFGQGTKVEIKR", 55],
  ["H1H21227N (antibody, human IgG1, V domains shown) VH: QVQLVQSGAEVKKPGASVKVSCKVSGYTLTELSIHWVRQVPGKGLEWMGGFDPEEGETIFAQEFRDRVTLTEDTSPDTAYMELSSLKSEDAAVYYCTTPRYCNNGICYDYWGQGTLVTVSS VL: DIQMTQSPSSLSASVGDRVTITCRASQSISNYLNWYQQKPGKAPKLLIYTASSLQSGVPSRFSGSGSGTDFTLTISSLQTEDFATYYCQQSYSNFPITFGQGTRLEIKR", 37],
  ["H2aM25695N (antibody, mouse IgG2a, V domains shown) VH: QVQLQESGPGLVKPSETLSLTCTVTGGSISRNYWSWIRQPPGKGLEWIGYIYYSGSINYNPSLKSRVTISVDMSKNQFSLKLNSVTAADTAVYYCARDRWNWKYGMDVWGQGTTVIVSS VL: EIVLTQSPGTLSLSPGERATLSCRASQTVRNSYLAWYHQKPGQAPRLLIYGASSRATGIPDRFSGSGSGTDFTLTISRLEPEDFAVYYCQQYGSSYWTFGQGTKMEIKR", 35]
]}
